Assay protocol: Cytotoxicity against mouse L929 cells assessed as inhibition of cell proliferation by MTT assay
Format: toxicity, cell-based
Measurement name: IC50 (µM)
Only the number, expressed in µM, is required.

Reported IC50 for COc1ccc(-c2nc(SCC(=O)O[C@H]3CC[C@@]4(C)[C@@H](CC[C@]5(C)[C@H]4C[C@@H](O)[C@@H]4C([C@@]6(C)CCCC(C)(C)O6)CC[C@]45C)C3(C)C)[nH]c(=O)c2C#N)cc1 (stereo partly specified) : what is it?
76.3

Also CC1(C)CCC[C@](C)([C@@H]2CC[C@]3(C)[C@@H]2[C@H](O)CC2[C@@]4(C)CC[C@H](OC(=O)CSc5nc(-c6cccc(F)c6)c(C#N)c(=O)[nH]5)C(C)(C)[C@@H]4CC[C@]23C)O1 (stereo partly specified) , if possible.
76

Also CC1(C)CCC[C@](C)([C@@H]2CC[C@]3(C)[C@@H]2[C@H](O)CC2[C@@]4(C)CC[C@H](OC(=O)CSc5nc(-c6ccc(F)cc6)c(C#N)c(=O)[nH]5)C(C)(C)[C@@H]4CC[C@]23C)O1 (stereo partly specified) , if possible.
76

Also CC1(C)CCC[C@](C)(C2CC[C@]3(C)[C@@H]2[C@H](O)C[C@H]2[C@@]4(C)CC[C@H](OC(=O)CSc5nc(-c6c[nH]c7ccccc67)c(C#N)c(=O)[nH]5)C(C)(C)[C@@H]4CC[C@]23C)O1 (stereo partly specified) , if possible.
76.1

Also CC1(C)CCC[C@](C)([C@@H]2CC[C@]3(C)[C@@H]2[C@H](O)CC2[C@@]4(C)CC[C@H](OC(=O)CSc5nc(-c6cccc(Cl)c6)c(C#N)c(=O)[nH]5)C(C)(C)[C@@H]4CC[C@]23C)O1 (stereo partly specified) , if possible.
74.9

Also CC1(C)CCC[C@](C)([C@@H]2CC[C@]3(C)[C@@H]2[C@H](O)C[C@@H]2[C@@]4(C)CC[C@H](OC(=O)CSc5nc(-c6ccccc6)c(C#N)c(=O)[nH]5)C(C)(C)[C@@H]4CC[C@]23C)O1 , if possible.
74.7

Also CC1(C)CCC[C@](C)([C@@H]2CC[C@]3(C)[C@@H]2[C@H](O)CC2[C@@]4(C)CC[C@H](OC(=O)CSc5nc(-c6ccc(C(F)(F)F)cc6)c(C#N)c(=O)[nH]5)C(C)(C)[C@@H]4CC[C@]23C)O1 (stereo partly specified) , if possible.
68.7

Also COc1cc(-c2nc(SCC(=O)O[C@H]3CC[C@@]4(C)[C@@H](CC[C@]5(C)[C@H]4C[C@@H](O)[C@@H]4C([C@@]6(C)CCCC(C)(C)O6)CC[C@]45C)C3(C)C)[nH]c(=O)c2C#N)cc(OC)c1OC (stereo partly specified) , if possible.
77.7

Also Cc1ccc(-c2nc(SCC(=O)O[C@H]3CC[C@@]4(C)[C@@H](CC[C@]5(C)[C@H]4C[C@@H](O)[C@@H]4[C@H]([C@@]6(C)CCCC(C)(C)O6)CC[C@]45C)C3(C)C)[nH]c(=O)c2C#N)cc1 , if possible.
77.4

Also COc1cccc(-c2nc(SCC(=O)O[C@H]3CC[C@]4(C)[C@H]5C[C@@H](O)[C@@H]6[C@H]([C@@]7(C)CCCC(C)(C)O7)CC[C@@]6(C)[C@]5(C)CC[C@H]4C3(C)C)[nH]c(=O)c2C#N)c1 , if possible.
64.5
